FYI, the data here is from patent US9157074B2.

System: β-amylase
Test Name: Effect of metal ion and inhibitor on β-amylase activity
Format: biochemical, Bacillus flexus
Test Conditions: 1 mM metal ion or inhibitor, 30° C., 30 minutes, pH 5.0; not added = 100%
Description: The activity of β-amylase was measured as follows. To 0.5 ml of 0.1M phosphate-HCl buffer solution (pH 5.0) containing 1% soluble starch and 10 mM calcium acetate, 0.5 ml of enzyme solution was added. The mixture was incubated at 37° C. for 30 minutes. […] After the reaction was stopped, the reaction mixture was boiled for five minutes, the absorbance was measured at the wavelength of 530 nm. The enzyme amount when the absorbance measured at the wavelength of 530 nm is 1 is defined as one unit. […]
Quantity Kind: Relative activity (%)
Value expressed in %; do not type the unit.

Molecule	Value Unit	Relative activity
[Mg+2]	%	103

Look up and report measured Relative activity (β-amylase) for the following molecule: [Mn+2]
222

Look up and report measured Relative activity (β-amylase) for the following molecule: [Ca+2]
130

Look up and report measured Relative activity (β-amylase) for the following molecule: O=C(O)CI
14

Look up and report measured Relative activity (β-amylase) for the following molecule: [Zn+2]
96

Look up and report measured Relative activity (β-amylase) for the following molecule: [Na+]
88

Look up and report measured Relative activity (β-amylase) for the following molecule: [Fe+2]
105

Look up and report measured Relative activity (β-amylase) for the following molecule: [K+]
96

Look up and report measured Relative activity (β-amylase) for the following molecule: [Cu+2]
46

Look up and report measured Relative activity (β-amylase) for the following molecule: O=C(O)c1cc[c]([Hg][Cl])cc1
25

Look up and report measured Relative activity (β-amylase) for the following molecule: CCN1C(=O)C=CC1=O [N-ethylmaleimide]
93

Look up and report measured Relative activity (β-amylase) for the following molecule: CCCCCCCCCCCCOS(=O)(=O)[O-].[Na+]
37
